Origin of the recorded values: patent US5753648A

Test system: Endogenous Arginine Vasopressin Antidiuretic (V2) Response in Conscious Rats
Assay: Antagonism of Endogenous Arginine Vasopressin Antidiuretic (V2) Response in Conscious Rats (urine volume)
Assay type: in vivo, rat (Sprague-Dawley)
Conditions: 10 mg/kg rat p.o.; 4 hour collection
measurement label: Urine Volume (ml/4 hrs)
Numbers only, in ml/4 hrs.

* O=C(Nc1ccc(C(=O)N2Cc3ccc(CNC(CO)(CO)CO)n3Cc3ccccc32)c(Cl)c1)c1ccccc1-c1ccccc1 [Example 374] | 16.5
* CN(C)CCN(C)Cc1ccc2n1Cc1ccccc1N(C(=O)c1ccc(NC(=O)c3ccccc3-c3ccccc3)cc1Cl)C2 [Example 375] | 44.2
* CN(C)Cc1ccc2n1Cc1ccccc1N(C(=O)c1ccc(NC(=O)C3=C(c4ccccc4)CCC3)cc1Cl)C2 [Example 379] | 18.9
* CN(C)Cc1ccc2n1Cc1ccccc1N(C(=O)c1ccc(NC(=O)c3ccccc3-c3ccccc3)cc1O)C2 [Example 372] | 30.3
* O=C(Nc1ccc(C(=O)N2Cc3cccn3Cc3ccccc32)c(Cl)c1)c1cccc2cccnc12 [Example 378] | 11.7
* CN(C)C1CCN(Cc2ccc3n2Cc2ccccc2N(C(=O)c2ccc(NC(=O)c4ccccc4-c4ccccc4)cc2Cl)C3)CC1 [Example 376] | 23.8
* O=C(Nc1ccc(C(=O)N2Cc3cccn3Cc3ccccc32)c(Cl)c1)c1ccccc1-n1cccc1 [Example 377] | 13.2

Ask: Tell me the measured Urine Volume of O=C(Nc1ccc(C(=O)N2Cc3ccc(CN4CCC(N5CCCCC5)CC4)n3Cc3ccccc32)c(Cl)c1)c1ccccc1-c1ccccc1 [Example 373] , please.
Reply: 15.6

###

Exercise: state measured inhibition at 1 µM for each of the molecules provided.
Target: Rat Kidney Medullary V2 Receptors (Rattus norvegicus, UniProt Q00788)
Construct: Medullary tissues from rat kidneys are dissected out; from tissue; host or cells: rat kidney medulla membranes
Sequence (Q00788 whole entry): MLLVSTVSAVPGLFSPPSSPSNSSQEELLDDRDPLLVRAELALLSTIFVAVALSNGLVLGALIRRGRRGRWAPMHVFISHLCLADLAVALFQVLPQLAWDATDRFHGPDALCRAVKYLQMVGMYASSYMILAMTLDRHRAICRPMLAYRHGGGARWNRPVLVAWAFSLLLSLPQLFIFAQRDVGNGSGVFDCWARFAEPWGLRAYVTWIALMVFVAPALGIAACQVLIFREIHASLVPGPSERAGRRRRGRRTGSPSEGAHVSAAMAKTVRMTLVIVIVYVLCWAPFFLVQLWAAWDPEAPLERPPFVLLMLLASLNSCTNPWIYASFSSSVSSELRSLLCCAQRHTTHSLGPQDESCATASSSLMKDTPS
Test: biochemical
Assay type: binding
Conditions: at 1 μM
Method: Binding Assay to Rat Kidney Medullary V2 Receptors Medullary tissues from rat kidneys are dissected out, cut into small pieces and soaked in a […] sodium chloride solution containing 1.0 mM EDTA with many changes of the liquid phase, until the solution is clear of blood. […] The protein content is determined by the Lowry's method (Lowry et al, J. Biol. Chem., 1953). […]
Answers are plain numbers, in %.

Completed entries (count: 7):
• O=C(Nc1ccc(C(=O)N2Cc3cccn3Cc3ccccc32)cn1)c1c(F)cccc1Cl [Example 18] = 94
• O=C(Nc1ccc(C(=O)N2Cc3cccn3Cc3ccccc32)cn1)c1ccccc1-c1ccccc1 [Example 10] = 95
• CN(C)CCCNc1ncccc1C(=O)Nc1ccc(C(=O)N2Cc3cccn3Cc3ccccc32)cc1 [Example 335] = 60
• Nc1ccccc1C(=O)Nc1ccc(C(=O)N2Cc3cccn3Cc3ccccc32)cn1 [Example 354] = 86
• COc1ccc(CNc2ccc(C(=O)N3Cc4cccn4Cc4ccccc43)cn2)c(OC)c1 [Example 351] = 56
• O=C(Nc1ccc(C(=O)N2Cc3cccn3Cc3ccccc32)cc1)c1cccnc1N1CCOCC1 [Example 339] = 55
• Cc1ccc(F)cc1C(=O)N(CCCN(C)C)c1ccc(C(=O)N2Cc3cccn3Cc3ccccc32)cn1 [Example 131] = 82

Shifting focus to the molecule that follows.
Ask: Tell me the measured inhibition at 1 µM of Cc1occc1C(=O)Nc1ccc(C(=O)N2Cc3cccn3Cc3ccccc32)cn1 [Example 353] , please.
Reply: 86

###

Target: UniProt P70536
Test: Oxytocin Receptor Binding
Details: rat uterine membranes, [3H]oxytocin
pIC50: −log10 of the molar value.
Threshold rule: pIC50 greater than or equal to 6 is fulfilled; below that, not fulfilled.

Ask: Hi team, for Cc1occc1C(=O)Nc1ccc(C(=O)N2Cc3cccn3Cc3ccccc32)cn1 [Example 353] , is the recorded pIC50 at or above 6?
Reply: not fulfilled

Ask: Next: O=C(Nc1ccc(C(=O)N2Cc3cccn3Cc3ccccc32)cn1)c1ccccc1Br [Example 8]
Reply: fulfilled

Ask: Next: O=C(c1ccc(NCC2CCCCC2)nc1)N1Cc2cccn2Cc2ccccc21 [Example 263]
Reply: fulfilled

Ask: Next: Cc1ccc(F)cc1C(=O)Nc1ccc(C(=O)N2Cc3cccn3Cc3ccccc32)cn1 [Example 1]
Reply: fulfilled

###

Target: oxytocin receptors (Rattus norvegicus, UniProt P70536)
Sequence (P70536 whole entry): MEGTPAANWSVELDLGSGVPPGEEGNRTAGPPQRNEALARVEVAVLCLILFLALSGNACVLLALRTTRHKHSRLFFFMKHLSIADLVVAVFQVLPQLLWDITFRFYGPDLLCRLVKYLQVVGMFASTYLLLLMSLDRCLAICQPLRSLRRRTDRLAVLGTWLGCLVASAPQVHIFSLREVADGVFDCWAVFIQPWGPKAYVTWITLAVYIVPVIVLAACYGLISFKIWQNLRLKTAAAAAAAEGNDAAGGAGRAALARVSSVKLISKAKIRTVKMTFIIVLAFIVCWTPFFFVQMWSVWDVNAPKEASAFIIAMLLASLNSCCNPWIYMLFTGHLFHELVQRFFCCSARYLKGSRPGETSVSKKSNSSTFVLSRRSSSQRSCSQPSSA
Assay: Oxytocin Receptor Binding
Settings: rat uterine membranes, [3H]oxytocin
pIC50: −log10 of the molar value.
Threshold rule: pIC50 greater than or equal to 6 is y; below that, n.

* O=C(c1ccc(NCc2ccccc2Br)nc1)N1Cc2cccn2Cc2ccccc21 [Example 352] | y
* O=C(Nc1ccc(C(=O)N2Cc3cccn3Cc3ccccc32)cn1)c1cc(Cl)ccc1Cl [Example 14] | y
* O=C(Nc1ccc(C(=O)N2Cc3cccn3Cc3ccccc32)cn1)c1ccc([N+](=O)[O-])cc1Cl [Example 33] | y

Ask: Hi team, for CC(C)(C)CCNc1ccc(C(=O)N2Cc3cccn3Cc3ccccc32)cn1 [Example 262] , is the recorded pIC50 at or above 6?
Reply: n

###

Target: oxytocin receptors (Rattus norvegicus, UniProt P70536)
Test: Oxytocin Receptor Binding
Conditions: dose 10 μM
Threshold rule: inhibition at 10 µM greater than or equal to 90% is class 1; below that, class 0.

Some solved entries appear below for comparison.
- O=C(Nc1ccc(C(=O)N2Cc3cccn3Cc3ccccc32)cn1)c1ccccc1[N+](=O)[O-] [Example 43]: class 1
- O=C(c1ccc(SC2CCCCC2)nc1)N1Cc2cccn2Cc2ccccc21 [Example 288]: class 1
- O=C(Nc1ccc(C(=O)N2Cc3cccn3Cc3ccccc32)cc1)c1cccnc1Cl [Example 333]: class 1
- CC(C)(C)CCNc1ccc(C(=O)N2Cc3cccn3Cc3ccccc32)cn1 [Example 262]: class 0
- Cc1ccccc1C(=O)Nc1ncc(C(=O)N2Cc3cccn3Cc3ccccc32)cc1Br [Example 12]: class 1
- O=C(c1ccc(NC2CCc3ccccc32)nc1)N1Cc2cccn2Cc2ccccc21 (stereo not shown) [Example 350]: class 1
- Cc1ccc(F)cc1C(=O)N(CCCN(C)C)c1ccc(C(=O)N2Cc3cccn3Cc3ccccc32)cn1 [Example 131]: class 0
- Cc1c(F)cccc1C(=O)Nc1ccc(C(=O)N2Cc3cccn3Cc3ccccc32)cn1 [Example 4]: class 1
- CC(C)(Oc1ccc(Cl)cc1)C(=O)Nc1ccc(C(=O)N2Cc3cccn3Cc3ccccc32)cc1 [Example 347]: class 0
- Cc1occc1C(=O)Nc1ccc(C(=O)N2Cc3cccn3Cc3ccccc32)cn1 [Example 353]: class 0

Ask: Hi team, for COc1cc(C(=O)Nc2ccc(C(=O)N3Cc4cccn4Cc4ccccc43)cn2)cc(OC)c1OC [Example 5] , is the recorded inhibition at 10 µM at or above 90%?
Reply: class 1

Ask: Next: O=C(Nc1ccc(C(=O)N2Cc3cccn3Cc3ccccc32)cn1)c1cc(Cl)ccc1Cl [Example 14]
Reply: class 1

Ask: Next: Cc1ccc(F)cc1C(=O)Nc1ccc(C(=O)N2Cc3ccnn3Cc3ccccc32)cn1 [Example 208]
Reply: class 1

Ask: Next: O=C(Nc1ccc(C(=O)N2Cc3cccn3Cc3ccccc32)cc1)c1cccnc1N1CCCCC1 [Example 336]
Reply: class 1

Ask: Next: O=C(Nc1ccc(C(=O)N2Cc3cccn3Cc3ccccc32)cn1)c1ccc(F)cc1F [Example 7]
Reply: class 0

Ask: Next: O=C(Nc1ccc(C(=O)N2Cc3cccn3Cc3ccccc32)cn1)c1ccc([N+](=O)[O-])cc1Cl [Example 33]
Reply: class 1

###

Target: Human V2 Vasopressin Receptor (Homo sapiens, UniProt P30518)
Construct: expressed in transfected cells; host or cells: mouse fibroblast cell line LV-2
Sequence (P30518 whole entry): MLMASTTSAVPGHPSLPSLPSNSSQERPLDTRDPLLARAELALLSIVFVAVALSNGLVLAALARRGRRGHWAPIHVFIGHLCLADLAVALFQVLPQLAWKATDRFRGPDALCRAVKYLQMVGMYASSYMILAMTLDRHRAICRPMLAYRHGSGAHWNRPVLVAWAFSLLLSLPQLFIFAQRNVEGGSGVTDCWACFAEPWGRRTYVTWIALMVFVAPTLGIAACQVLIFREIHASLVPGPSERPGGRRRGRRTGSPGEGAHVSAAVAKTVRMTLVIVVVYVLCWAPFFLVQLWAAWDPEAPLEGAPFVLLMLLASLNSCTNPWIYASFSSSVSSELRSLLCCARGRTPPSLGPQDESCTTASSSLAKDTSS
Assay: Binding to Membranes of Mouse Fibroblast Cell Line (LV-2) Transfected with the cDNA Expressing the Human V2 Vasopressin Receptor
Conditions: ** LV-2 cells transfected with human V2 receptor cDNA; read-out: V2 IC50 (**human V2 receptor)
measurement label: IC50
Could you write the number and then its unit?

* Cc1ccc(F)cc1C(=O)Nc1ccc(C(=O)N2Cc3cccn3Cc3ccccc32)cn1 | 5 nM

Shifting focus to the compound that follows.
Ask: Tell me the measured IC50 of O=C(Nc1ccc(C(=O)N2Cc3cccn3Cc3ccccc32)cn1)c1ccc(F)cc1Cl , please.
Reply: 0.9 nM

###

Target: oxytocin receptors (Rattus norvegicus, UniProt P70536)
Assay: Oxytocin Receptor Binding
Details: dose 1 μM
Exercise: state measured inhibition at 1 µM for each of the compounds provided.
Numbers only, in %.

• O=C(Nc1ccc(C(=O)N2Cc3cccn3Cc3ccccc32)cc1)c1ccccc1-c1ccc(C(F)(F)F)cc1 = 45
• O=C(Nc1ccc(C(=O)N2Cc3cccn3Cc3ccccc32)cc1)c1cccnc1Oc1ccc(Cl)cc1 = 0
• CCCCOc1ccc(C(=O)N2Cc3cc(CO)nn3Cc3ccccc32)cc1 = 58

Ask: Tell me the measured inhibition at 1 µM of CNc1ncccc1C(=O)Nc1ccc(C(=O)N2Cc3cccn3Cc3ccccc32)cc1 , please.
Reply: 5

###

Biological target: Rat Kidney Medullary V2 Receptors (Rattus norvegicus, UniProt Q00788)
Construct: Medullary tissues from rat kidneys are dissected out
Assay: biochemical
measurement label: pIC50
Numbers only, as −log10 of the molar value.

Completed entries (count: 3):
- O=C(c1ccc(NCc2ccccc2Br)nc1)N1Cc2cccn2Cc2ccccc21: 7.23
- CN1CCN(c2ncccc2C(=O)Nc2ccc(C(=O)N3Cc4cccn4Cc4ccccc43)cc2)CC1: 6.19
- O=C(Nc1ccc(C(=O)N2Cc3cccn3Cc3ccccc32)cc1)c1cccnc1Cl: 6.39

Look up pIC50 for the entries below, preserving their order.
1. O=C(Nc1ccc(C(=O)N2Cc3cccn3Cc3ccccc32)cc1)c1ccccc1-c1ccc(C(F)(F)F)cc1
2. Cc1ncccc1C(=O)Nc1ccc(C(=O)N2Cc3cccn3Cc3ccccc32)cn1
3. O=C(Nc1ccc(C(=O)N2Cc3cccn3Cc3ccccc32)cn1)c1ccc(F)cc1Cl
4. O=C(Nc1ccc(C(=O)N2Cc3cccn3Cc3ccccc32)c(Cl)c1)c1ccccc1Cc1ccccc1
5. O=C(Nc1ccc(C(=O)N2Cc3cccn3Cc3ccccc32)cc1)c1ccccc1-c1ccccc1
6. Cc1ccc(F)cc1C(=O)Nc1ccc(C(=O)N2Cc3cccn3Cc3ccccc32)cn1

Reply:
1: 6.92; 2: 7.15; 3: 8.96; 4: 7.96; 5: 8.59; 6: 8.40
